# Tested on: CSF1R
# test settings: concentration: 1 μM, replicates: in singlicate; n = 1;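 further: KINOMEscan kinase panel screen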
metric name: %Inh (%)
Just the number in %, nothing appended.

Some molecules with recorded %Inh:
O=C(Nc1ccc2c(c1)OCO2)NC1CCN(c2ccnc(Nc3ccc(F)cc3)n2)C1 (stereo not drawn)
0
Cl.NC(=O)c1cccc(Nc2nccc(Nc3ccc(Oc4cccc(Cl)c4)c(Cl)c3)n2)c1
14
NC(=O)c1nnc2ccccc2c1N
14
Clc1cc(Cl)cc(Nc2ccnc(Nc3cc(Cl)cc(Cl)c3)n2)c1
3
CC(C)(C)c1ccc(C(=O)Nc2cn3cc(-c4cccnc4)ccc3n2)cc1
30

Proceed to the following item.
Query string: // returns reported %Inh for input Cn1ccc2ncnc(Oc3ccc(Nc4nc5ccccc5[nH]4)cc3)c21
Result string: 17

====

# System: YANK2
# Construct: gene STK32B
# test settings: concentration: 1 μM, replicates: in singlicate; n = 1
Parameter %Inh: see the listing below.
Just the number in %, nothing appended.

Cc1csc(-c2nc(Nc3ccncc3)c3ccccc3n2)n1
3
COc1cc2ncnc(Nc3ccc4nc(-c5ccccc5)[nH]c4c3)c2cc1OC.Cl
0
O=C(Nc1ccccc1)Nc1cccc(Oc2ccc3nccn3n2)c1
29
Cn1cncc1-c1ccc2ncnc(Nc3ccc(OCc4ccccc4)cc3)c2c1
16
Fc1cc(Cl)ccc1Nc1ccnc2cc(-c3ccc(CN4CCCCC4)o3)ccc12
0
NC(=O)c1nnc2ccccc2c1N
0
COc1cc2ncn(-c3cc(OCC4CCCO4)c(C(N)=O)s3)c2cc1OC (stereo not shown)
0
Cc1cc(-c2ccc3c(c2)CC[C@@H](N[C@@H](C)c2ccccc2)C3)cnc1N.Cl
4
Cc1cc(N2Cc3ccccc3C2)nc(Nc2ccc(S(=O)(=O)N3CCOCC3)cc2)n1.Cl
0

Proceed to the following item.
Query string: // returns reported %Inh for input Cn1ccc2ncnc(Oc3ccc(NC(=O)Nc4ccccc4)cc3)c21
Result string: 0

====

# System: JAK1(JH2domain-pseudokinase)
# test settings: concentration: 1 μM, replicates: in singlicate; n = 1
Parameter %Inh: see the listing below.
Just the number in %, nothing appended.

Some compounds with recorded %Inh:
CCn1c(-c2cccnc2O)nc2cnccc21
0
CSc1nn2c(=O)cc(N3CCOCC3)nc2n1Cc1cccc(C(F)(F)F)c1C
0
Fc1cc(Cl)ccc1Nc1ccnc2cc(-c3ccc(CN4CCCCC4)o3)ccc12
0
Cc1cc(-c2ccc3c(c2)CC[C@@H](N[C@@H](C)c2ccccc2)C3)cnc1N.Cl
46
Cc1cc(NCC(c2ccccc2)c2ccccc2)nc(NCc2ccc(C(F)(F)F)cc2)n1
0
Cc1ccc(-c2cc(-c3c[nH]nc3-c3ccccn3)ccn2)cc1
1

Query string: // returns reported %Inh for input COc1ccc(Nc2nccc(NCCNC(=O)Nc3ccccc3F)n2)cc1
Result string: 0

Query string: Likewise for Cc1cccc(-c2nc(-c3ccc(S(C)(=O)=O)cc3)sc2-c2ccnc(NCCc3ccccc3)c2)c1 ?
Result string: 4

Query string: Likewise for O=C(Nc1n[nH]c2nc(-c3nccs3)c(Br)cc12)C1CC1 ?
Result string: 21

====

# System: IRAK3
# test settings: concentration: 1 μM, replicates: in singlicate; n = 1
metric name: %Inh (%)
Just the number in %, nothing appended.

Some molecules with recorded %Inh:
Cc1cc(NCC(c2ccccc2)c2ccccc2)nc(NCc2ccc(C(F)(F)F)cc2)n1
0
COc1cccc(NC(=O)NC2CCN(c3ccnc(Nc4ccc(F)cc4)n3)C2)c1 (centres unmarked)
0
Cc1c(Cn2ccn3c(=O)cc(N4CCOCC4)nc23)cccc1C(F)(F)F
4

Query string: // returns reported %Inh for input COc1ccc(Nc2nccc(-c3cccc(NC(=O)c4cc5cc(F)ccc5[nH]4)c3)n2)cc1
Result string: 42

Query string: Likewise for CCCc1ccc(S(=O)(=O)NC2CCN(c3ccnc(Nc4ccc(F)cc4)n3)C2)cc1 (centres unmarked) ?
Result string: 0

Query string: Likewise for COc1ccccc1-c1ccc2c(NC(=O)C3CC3)n[nH]c2n1 ?
Result string: 9

Query string: Likewise for CCn1c(-c2ccccn2)nc2cnccc21 ?
Result string: 100

Query string: Likewise for COc1cc2ncn(-c3cc(OCC4CCCO4)c(C(N)=O)s3)c2cc1OC (centres unmarked) ?
Result string: 0

Query string: Likewise for COc1ccc2nc(-c3cccc(C)n3)nc(Nc3ccncc3)c2c1 ?
Result string: 0

Query string: Likewise for COc1cc2nccc(Nc3ccc(NC(=O)c4ccc(C)cc4)c(O)c3)c2cc1OC.Cl ?
Result string: 14

Query string: Likewise for Cc1cccc(-c2nc(-c3ccc(S(C)(=O)=O)cc3)sc2-c2ccnc(NCCc3ccccc3)c2)c1 ?
Result string: 0
